Molecular target: T1, human TIGIT protein (human, UniProt Q495A1 22-141, limits assumed)
T1 construct: Recombinant protein (Genentech) used in ELISA screening and as SPR analyte; also called TIGIT antigen
T1 sequence: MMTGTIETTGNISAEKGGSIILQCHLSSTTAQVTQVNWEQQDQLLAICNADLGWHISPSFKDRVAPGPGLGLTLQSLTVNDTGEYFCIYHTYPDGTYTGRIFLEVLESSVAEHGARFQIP
Assay: SPR, captured mAb
Please use label 1 whenever kon is not below 900000 M⁻¹ s⁻¹, and label 0 whenever it is.

[ask] Assess whether reported kon for h10A5.L4H4 (antibody, V domains shown, Fully humanized version; FR/HVR pieces in order) VH: EVTLKESGPALVKPTQTLTLTCTFSGFSLTTYGMGVSWIRQPPGKALEWLASIWWNGNTYYNPSLRSRLTITKDTSKNQVVLTMTNMDPVDTATYYCAHTGGAVITWFAYWGQGTLVTVSS VL: EIVMTQSPATLSVSPGERATLSCKASQSVGKNIAWYQQKPGQAPRLLIYYASNRYTGIPARFSGSGSGTEFTLTISSLQSEDFAVYYCQHIYNSPYPFGQGTKVEIK sits at 900000 M⁻¹ s⁻¹ or higher.
[reply] label 1

[ask] Assess whether reported kon for h15C8.L3H1 (antibody, V domains shown, VL: Y71F against h15C8.L1H1; FR/HVR pieces) VH: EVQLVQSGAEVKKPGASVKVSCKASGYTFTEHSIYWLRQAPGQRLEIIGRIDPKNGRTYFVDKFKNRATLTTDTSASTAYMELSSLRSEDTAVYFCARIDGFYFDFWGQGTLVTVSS VL: DIQLTQSPSFLSASVGDRVTITCKGSQNVNKYLVWYQQKPGKAPKLLIYSTDNLQSGIPSRFSGSGSGTEFTLTISSLQPEDFATYFCYQYNNGFTFGQGTKVEIK sits at 900000 M⁻¹ s⁻¹ or higher.
[reply] label 0

[ask] Assess whether reported kon for rat7E7 (antibody, V domains shown, SD rat-derived; rat V domains as FR/HVR pieces; also called 1.7E7; Chimeric 1.7E7) VH: EVQLQQSGPELQRPGASVKLSCKATGYTFTEYSIYWVKQRPKQSLEIIGRIDPKNGRTYYVDKFKNRATLTADTSSNTAYMQLSSLTSEDTATYFCTRIYGFYFDFWGQGVMVTASS VL: NIHLTQSPSLLSASVGDRVTLSCKGSQNVNKYLVWYQQKLGEAPKLLIYNTDNLQSGIPSRFSGSGSGTDYTLTISSLQPEDAATYFCYQYNNGFTFGSGTKLEIK sits at 900000 M⁻¹ s⁻¹ or higher.
[reply] label 0

[ask] Assess whether reported kon for h15C8.L1H4 (antibody, V domains shown, VH: I48M against h15C8.L1H1; FR/HVR pieces) VH: EVQLVQSGAEVKKPGASVKVSCKASGYTFTEHSIYWLRQAPGQRLEIMGRIDPKNGRTYFVDKFKNRATLTTDTSASTAYMELSSLRSEDTAVYFCARIDGFYFDFWGQGTLVTVSS VL: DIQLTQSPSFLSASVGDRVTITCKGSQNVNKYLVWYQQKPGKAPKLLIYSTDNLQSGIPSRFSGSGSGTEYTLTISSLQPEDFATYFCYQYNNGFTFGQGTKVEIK sits at 900000 M⁻¹ s⁻¹ or higher.
[reply] label 0

[ask] Assess whether reported kon for h7E7.L1H1 (antibody, V domains shown, First humanized version; FR/HVR pieces in order; also called h1.7E7.L1H1) VH: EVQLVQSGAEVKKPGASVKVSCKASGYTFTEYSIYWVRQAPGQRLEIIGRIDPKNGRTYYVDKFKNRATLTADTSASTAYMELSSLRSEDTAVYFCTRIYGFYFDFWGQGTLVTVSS VL: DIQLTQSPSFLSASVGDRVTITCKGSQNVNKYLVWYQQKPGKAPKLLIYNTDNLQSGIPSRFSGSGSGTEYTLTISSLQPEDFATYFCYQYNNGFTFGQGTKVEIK sits at 900000 M⁻¹ s⁻¹ or higher.
[reply] label 1

Others:
[ask] Assess whether reported kon for h7E7.L1H8 (antibody, V domains shown, VH: T93A against h7E7.L1H1; FR/HVR pieces) VH: EVQLVQSGAEVKKPGASVKVSCKASGYTFTEYSIYWVRQAPGQRLEIIGRIDPKNGRTYYVDKFKNRATLTADTSASTAYMELSSLRSEDTAVYFCARIYGFYFDFWGQGTLVTVSS VL: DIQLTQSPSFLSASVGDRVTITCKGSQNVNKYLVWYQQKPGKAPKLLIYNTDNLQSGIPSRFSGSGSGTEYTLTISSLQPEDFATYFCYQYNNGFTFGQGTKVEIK sits at 900000 M⁻¹ s⁻¹ or higher.
[reply] label 1

[ask] Assess whether reported kon for h15C8.L1H7 (antibody, V domains shown, VH: T71R against h15C8.L1H1; FR/HVR pieces) VH: EVQLVQSGAEVKKPGASVKVSCKASGYTFTEHSIYWLRQAPGQRLEIIGRIDPKNGRTYFVDKFKNRATLTRDTSASTAYMELSSLRSEDTAVYFCARIDGFYFDFWGQGTLVTVSS VL: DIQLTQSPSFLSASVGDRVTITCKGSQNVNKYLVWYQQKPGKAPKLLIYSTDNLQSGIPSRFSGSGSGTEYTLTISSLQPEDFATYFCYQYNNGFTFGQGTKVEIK sits at 900000 M⁻¹ s⁻¹ or higher.
[reply] label 0

[ask] Assess whether reported kon for h15C8.L1H5 (antibody, V domains shown, VH: A67V against h15C8.L1H1; FR/HVR pieces) VH: EVQLVQSGAEVKKPGASVKVSCKASGYTFTEHSIYWLRQAPGQRLEIIGRIDPKNGRTYFVDKFKNRVTLTTDTSASTAYMELSSLRSEDTAVYFCARIDGFYFDFWGQGTLVTVSS VL: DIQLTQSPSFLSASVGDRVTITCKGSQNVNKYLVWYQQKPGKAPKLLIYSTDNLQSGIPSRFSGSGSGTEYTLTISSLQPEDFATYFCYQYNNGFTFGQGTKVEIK sits at 900000 M⁻¹ s⁻¹ or higher.
[reply] label 0
